Experiment summary: Solubility of 5-azacytidine in various solvents at ambient temperature (visual, solvent aliquot addition)
Format: physicochemical
Experimental context: 1:2 methanol/water, aqueous with cosolvent or surfactant or cyclodextrin, thermodynamic from solid, 1:2 methanol/water (second line printed with this solvent)
Measured quantity: solubility (µg/mL)

Molecule smiles	Value measured
Nc1ncn([C@@H]2O[C@H](CO)[C@@H](O)[C@H]2O)c(=O)n1	4600

###

Experiment summary: Solubility of 5-azacytidine in various solvents at ambient temperature (visual, solvent aliquot addition)
Assay type: physicochemical
Experimental context: 1:2 methanol/water, aqueous with cosolvent or surfactant or cyclodextrin, thermodynamic from solid, 1:2 methanol/water

Molecule smiles	solubility (µg/mL)
Nc1ncn([C@@H]2O[C@H](CO)[C@@H](O)[C@H]2O)c(=O)n1	3100
